Provenance of the data: patent US11479538B2

# tested-system: UniProt Q3SYC2
# Sequence (Q3SYC2 whole entry): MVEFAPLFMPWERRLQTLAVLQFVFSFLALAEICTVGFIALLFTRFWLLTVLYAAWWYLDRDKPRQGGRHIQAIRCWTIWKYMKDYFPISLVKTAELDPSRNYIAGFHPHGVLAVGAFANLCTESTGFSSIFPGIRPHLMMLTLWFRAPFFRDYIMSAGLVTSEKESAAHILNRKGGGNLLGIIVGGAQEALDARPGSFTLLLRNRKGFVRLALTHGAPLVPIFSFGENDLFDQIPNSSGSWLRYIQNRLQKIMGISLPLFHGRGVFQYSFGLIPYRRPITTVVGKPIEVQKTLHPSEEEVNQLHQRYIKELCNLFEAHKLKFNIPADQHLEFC
# experiment-summary: MGAT LCMS Assay
# details: human recombinant MGAT-2 membranes expressed in Sf9 cells; LC/MS readout of diolein; read-out: h-MGAT LCMS IC50
# Protocol: The MGAT enzyme reactions were performed in Corning FALCON® 96-well polypropylene plates, in a total volume of 60 μL of 50 mM potassium phosphate buffer pH 7.4, containing a final concentration of 100 μM 2-oleoylglycerol, 15 μM oleoyl-coenzyme A and […] human or mouse MGAT-2 or […] rat recombinant MGAT-2 membranes expressed in Sf9 cells. Assay plates were run through a fully automated robotics system and shaken for 5 seconds every minute for a total 10 minutes. […]
pIC50: −log10 of the molar value.

[
  {
    "compound": "O=C1N[C@@](c2ccc(OCCCC(F)(F)F)cc2F)(C(F)(F)F)CC(c2ncc(C3CC3)s2)=C1n1nn[nH]c1=O [Example 22]",
    "pIC50": 8.70
  }
]
